- Test system: OVCAR-5 ovarian
- METHOD: NCI-60 one-dose screen, 48 h (100 = growth as untreated, 0 = no growth, -100 = all killed)
- CONDITION CONTEXT: 10 µM unless noted
This is part of a sample that, as a whole, favours compounds with a hit. Of some 83,000 tested, about 20% had one in any assay.
READOUT LABEL: growth (%)
Return type: number; implicit unit %.

Please fill in: growth reported for C=C1C(=O)O[C@H]2[C@H]1CC/C(COC(=O)N1CCC[C@H]1C(=O)Nc1ccc(OC)c(C(N)=O)c1O)=C\CC[C@@]1(C)O[C@@H]21 = 68.5

growth measured on CC1(C)CC[C@]2(c3nnc(-c4ccncc4)o3)CC[C@]3(C)C(=CC[C@@H]4[C@@]5(C)CCC(=O)C(C)(C)[C@@H]5CC[C@]43C)[C@@H]2C1 = 99.9

According to the records, this compound O=c1[nH]nc(-c2ccc(Br)cc2)c2sc(NC(=S)Nc3ccc(Cl)cc3)nc12 displays growth of 97.3

Reported growth for COc1cccc(NC(=O)Nc2ccc(Nc3ncnc4[nH]c(C)c(C)c34)cc2)c1 was 114

The compound listed as CC(C)C1=C[C@@]23CC[C@H]4[C@](C)(COCCC#N)CCC[C@]4(C)[C@H]2C[C@@H]1[C@@H]1[C@H]3[C@@H](OCCC#N)CC[C@@H]1OCCC#N has a reported growth of 65.9

For reference, reported growth for COC(=O)c1cncc(C(=O)Nc2ccc(-n3cnc4ccccc43)cc2)c1 stands at 101

Value of measured growth for the entry O=C(/C(=C/c1ccc([N+](=O)[O-])cc1)SCc1ccccc1)c1ccc(Cl)cc1 : 95.4

compound COc1cc2c(cc1OC)C(Sc1ccc(Cl)cc1)c1c(nc(N)c(C#N)c1N)O2 (stereo not given) , growth observed: 10.8

Form: compound = NS(=O)(=O)c1ccc(N2Cc3cc(Cl)ccc3OC3=C2C(=O)N(CC2CCCCC2)C3=O)cc1 ; growth = -88.7

The recorded growth for O=C(NC[C@H](O)CN1CCc2ccccc2C1)c1cc(NC2COC2)ncn1 is 96.4

###

- Tested on: NCI-H522 lung
- METHOD: NCI-60 one-dose screen, 48 h
- CONDITION CONTEXT: 10 µM unless noted
The panel holds about 83,000 compounds, 20% with a hit somewhere; the sample as a whole holds those more often. Calls of active or inactive are those of the source. Rule for the calls: active = growth percent below 10; inactive = the rest.
Respond using exactly one of the listed classes: Yes = active, No = inactive

## Input Name the outcome recorded for C=C(C)[C@@H]1CC[C@]2(C(N)=O)CC[C@]3(C)[C@H](CC[C@@H]4[C@@]5(C)CCCNC(C)(C)[C@@H]5CC[C@]43C)[C@@H]12 in the assay.
## Output No

## Input Tell me the recorded outcome of this test for CC[C@H](Nc1ncnc2nc[nH]c12)c1nc2cccc(CC(=O)c3ccc(C(=O)NO)cc3)c2c(=O)n1-c1ccccc1 .
## Output No

## Input Please state the recorded outcome for this compound: CCc1ccc(OCc2ccccc2C(=O)Nc2ccc3nc(C)cc(N)c3c2)cc1
## Output Yes

## Input Lab log entry: Cc1c(C(=O)Nc2nc3ccccc3[nH]2)cnn1-c1ccccn1 — outcome as called in the assay?
## Output No

## Input So what was the verdict on N#Cc1ccc(N2Cc3cc(Cl)ccc3OC3=C2C(=O)N(Cc2ccc(F)cc2)C3=O)cc1 in this test?
## Output Yes

###

- System: U251 CNS
- METHOD: NCI-60 one-dose screen, 48 h (100 = growth as untreated, 0 = no growth, -100 = all killed)
- CONDITION CONTEXT: 10 µM unless noted
- Protocol: Growth inhibition of the U251 human tumor cell line is measured as a screen for anti-cancer activity. Cells are grown in 96 well plates and exposed to the test compound for 48 hours. Compounds are tested at a single concentration, which is 10^-5 M for most compounds. The reported endpoint is percent growth (GI% or GIPRCNT), where numbers from 0 - 100% represent growth inhibition, and numbers from -100% - 0 represent cell death. For example, a value of 40 represents 60% growth inhibition. […]
This is part of a sample that, as a whole, favours compounds with a hit. Of some 83,000 tested, about 20% had one in any assay.
Assign growth to each entry below.
Record the value in %, omitting the unit from your answer.

Entry under test: COc1ccc(/C=C(/C(=O)N2CCCC2)c2cc(OC)c(OC)c(OC)c2)cc1 . Its growth was 25.1

Entry COc1ccc(Cl)c([N+](=O)[O-])c1 — recorded growth = 106

Query CCCCCCCCCCCCCC1=NCC[N+]1(CCO)Cc1ccccc1 (stereo not given) yields growth of -88.7

The molecule COc1cc2cc(c1Cl)N(C)C(=O)C[C@H](OC(=O)[C@H](C)N(C)C(=O)CCS)C[C@]1(C)O[C@H]1[C@H](C)[C@@H]1C[C@@](O)(NC(=O)O1)[C@H](OC)/C=C/C=C(\C)C2 showed growth equal to 10.2

Please fill in: growth reported for COc1ccc2nc3c(n2c1)C(=O)C(=O)c1ccccc1-3 = -59.4

Reported growth for CCCn1c(N)c(C(N)=O)sc1=S was 97.4

// CCOC(=O)c1cnn(-c2nc(-c3ccc(F)cc3)c(C#N)c(N3CCOCC3)n2)c1N : growth value = 95.3

What the record says about O=C(CCCCCCCCC(=O)Nc1cccc(C2=NCCN2)c1)Nc1cccc(C2=NCCN2)c1 : growth is 91.7

The recorded growth for COc1ccc2nc(-c3ccc(OC)c(OC)c3)cc(-c3nnc(SCC(=O)Nc4ccc(/C(C)=N\O)cc4)n3-c3ccccc3)c2c1 is 78.3

// recorded growth for C[C@H](Oc1cc(-c2cnn(C3CCNCC3)c2)cnc1N)c1c(Cl)ccc(F)c1Cl : 37.6

Sure, the documented growth for O=C(Nc1ccccc1)NS(=O)(=O)c1c[nH]c(=S)[nH]c1=O is 93.3

get_value(item= Cc1cccc(C)c1NC(=O)CN(CC(C)C)CC(O)COc1ccccc1 (stereo not given) , readout=growth) returns 99.7

Lookup result for COc1cc(-c2csc(NC(=O)Nc3cc(Cl)cc(Cl)c3)n2)cc(OC)c1OC ; measured growth: -80.1

# growth of CCSc1ccc(C2C(Br)C(=O)N2c2cc(OC)c(OC)c(OC)c2)cc1 (stereo not given) = 12.1

For this molecule ( COc1cc(N=Nc2cc(S(=O)(=O)O)cc3cc(S(=O)(=O)O)cc(O)c23)c(C)cc1N=Nc1c(S(=O)(=O)O)cc2cc(Nc3ccccc3)ccc2c1O ), measured growth is 109

// recorded growth for Nc1n[nH]c2cccc(C#Cc3cccc(NC(=O)c4cc(N5CCOCC5)cc(C(F)(F)F)c4)c3)c12 : 56.3

Item: CCOC(=O)c1c(C)nc2c(c1N)/C(=C/c1ccccn1)C(=O)N2Cc1ccccc1 | growth: -87.4

# molecule CCCCn1c(=O)c(/C=C/C(=O)/C=C/c2ccc(O)c(OC)c2)cc2ccc(Cl)cc21 ; its growth = 3.33

Recorded result, COc1ccc(C(C)c2cc(OC)c(OC)c(OC)c2)cc1 (stereo not given) , growth: 18

Measured growth, Nc1c(C(=O)Nc2cccc3ccccc23)sc2nc3c(cc12)CCCCCC3 : 14.4

C=C(C)[C@@H]1CC[C@]2(C(=O)O)CC[C@]3(C)[C@H](CC[C@@H]4[C@@]5(C)C[C@@H](CC#Cc6ccccc6)C(=O)C(C)(C)[C@@H]5CC[C@]43C)[C@@H]12 yielded growth of 27.8

// sample COc1ccc2nc(-c3ccc(OC)c(OC)c3)cc(-c3nnc(SCC(=O)Nc4ccc(C(C)=O)cc4)o3)c2c1 , its growth was 97.7

Per the record, OCCNc1nc(NCCO)nc(Nc2ccc(C3=NN(c4cc(Cl)cc(Cl)c4)C(c4ccccc4)C3)cc2)n1 (stereo not given) has growth of 27.2

growth reading for O=[N+]([O-])c1ccc(Oc2ccc(-c3ccccc3)cc2)cc1 : 88.5

Record O=C1NC(c2ccc(F)cc2)N=C2C(c3ccccc3)=NOC12 (stereo not given) . Reported growth: 101

Given item C=C1C(=O)O[C@H]2[C@H]1CC/C(COC(=O)c1cn(C)c3ccccc13)=C\CC[C@@]1(C)O[C@@H]21 , the value recorded as its growth is 11.7

Data point: CNS(=O)(=O)c1cccc(-c2ccc3c4c(n(C)c(=O)c3c2)-c2ccccc2C4=O)c1 ; growth = 23.2

// sample O=S(=O)(O)c1ccc(N=NSc2ccc3ccccc3c2)cc1 , its growth was 96.9

In plain terms, OCCNc1nc(NCCO)nc(Nc2ccc(C3=NN(c4cc(Cl)cc(Cl)c4)C(c4ccc(C(F)(F)F)cc4)C3)cc2)n1 (stereo not given) has a documented growth of 19.3

// field: growth; key: CN(C)CCCn1c2c(c3cc(-c4cccc(S(N)(=O)=O)c4)ccc3c1=O)C(=O)c1ccccc1-2 ; value = 47.5
